Each record here notes measured Emax.
biological target: human P2X4 (Homo sapiens, UniProt Q99571); construct: expressed in transfected cells; assay: Intracellular Ca2+ assay (Fura-2, FlexStation 3), agonist responses in 1321N1 cells stably expressing human P2X4; assay type: cell-based; conditions: 1321-N1, read-out: Efficacy Human (maximal response to ligand as a percentage of maximal response to ATP)
Sequence (Q99571 whole entry): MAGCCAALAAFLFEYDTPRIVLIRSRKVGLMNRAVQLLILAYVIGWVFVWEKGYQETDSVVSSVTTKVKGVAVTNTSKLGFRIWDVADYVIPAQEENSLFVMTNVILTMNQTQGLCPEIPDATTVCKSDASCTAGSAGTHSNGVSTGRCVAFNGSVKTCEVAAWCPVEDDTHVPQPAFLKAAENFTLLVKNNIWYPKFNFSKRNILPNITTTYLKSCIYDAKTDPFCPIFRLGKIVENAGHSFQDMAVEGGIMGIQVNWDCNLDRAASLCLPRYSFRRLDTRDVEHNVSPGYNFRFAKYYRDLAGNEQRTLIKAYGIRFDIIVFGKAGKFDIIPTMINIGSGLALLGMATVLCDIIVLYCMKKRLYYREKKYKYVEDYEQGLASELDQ
Put your answer as a value accompanied by its unit after it.

Sample records with Emax:
molecule	Emax
Nc1ccn([C@@H]2O[C@H](COP(=O)(O)OP(=O)(O)OP(=O)(O)O)[C@@H](O)[C@H]2O)c(=O)n1 [CTP, Cytidine 5′-triphosphate]	67%
Nc1ncnc2c1ncn2[C@@H]1O[C@H](CO[P@](=O)(O)O[P@](=O)(O)O[P@@](=O)(O)S)[C@@H](O)[C@H]1O [ATPγS, Adenosine-5′-O-(3-thio-triphosphate)]	9%
C#CCNP(=O)(O)OP(=O)(O)OP(=O)(O)OCC1OC(n2cnc3c(N)ncnc32)C(O)C1O (stereo not drawn) [γ-[(Propargyl)-imido]-ATP]	85%
Nc1ncnc2c1ncn2C1OC(COP(=O)(O)OP(=O)(O)OP(=O)(O)O)C(OC(=O)c2ccc(C(=O)c3ccccc3)cc2)C1O (stereo not drawn)	35%

QUERY: May I ask what Emax has been recorded for Nc1ncnc2c1ncn2C1OC(COP(=O)(O)CP(=O)(O)OP(=O)(O)O)C(O)C1O (stereo not drawn) [α,β-meATP, α,β-Methyleneadenosine 5′-triphosphate] ?
RESULT: 15%

QUERY: May I ask what Emax has been recorded for CSc1nc(N)c2ncn([C@@H]3O[C@H](COP(=O)(O)OP(=O)(O)OP(=O)(O)O)[C@@H](O)[C@H]3O)c2n1 [2-MeSATP, 2-(Methylthio)adenosine 5′-triphosphate] ?
RESULT: 57%
